Reference for the values: the supplement of paper PMC6555819

- Tested on: RXRa homodimer (NR concentration 180 nM)
- test_description: PBM binding z-score (relative to random genomic background probes); higher = stronger binding; sequences stand for … in GC…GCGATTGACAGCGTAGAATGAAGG
The threshold is inclusive: PBM binding z-score of exactly 2 counts as criterion met; values below receive criterion not met.

CGTCAAAGTTCAGGGTAACGTAACAGAAAGCAGC : criterion met
GCTATAAGTTGAAAGGGCAACCGAATGATTCTCG : criterion met
CTACCAAGGTGAACAAGGTCGTAGATTACTATTC : criterion met
CGTCCAAGGTCAGAGAGGCCAGTGAATGCCGAGT : criterion met
GATACAGGGTCAGATAGAGGCCAGAGTATGGAAA : criterion met

Then this sequence:
Task item: Tell me whether PBM binding z-score is at least 2 here: AGAACGAGGGTACGCTGAGTTGATAGCAGAGTAG
Reply: criterion not met
